molecular target: UniProt:Q16539
Sequence (Q16539 whole entry): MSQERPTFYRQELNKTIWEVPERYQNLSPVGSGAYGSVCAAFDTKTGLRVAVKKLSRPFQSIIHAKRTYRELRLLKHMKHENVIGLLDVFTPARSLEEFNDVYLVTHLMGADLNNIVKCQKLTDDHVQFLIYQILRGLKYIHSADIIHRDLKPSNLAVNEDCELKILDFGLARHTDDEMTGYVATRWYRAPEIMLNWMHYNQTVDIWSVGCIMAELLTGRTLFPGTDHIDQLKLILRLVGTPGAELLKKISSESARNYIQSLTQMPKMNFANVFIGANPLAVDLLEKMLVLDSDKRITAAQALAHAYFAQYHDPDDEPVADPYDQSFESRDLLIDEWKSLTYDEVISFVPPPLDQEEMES
property.name: pIC50
The meaning of pIC50 here: minus log10 of the concentration in molar units.

Please tell me: pIC50 of CCN1CCN(Cc2ccc(NC(=O)c3ccc(C)c(Oc4ncnc5cc(NC)c(OC)cc45)c3)cc2C(F)(F)F)CC1 [Compound (I-1)] , system UniProt:Q16539? 7.10

---

assay: microsome stability (rat); type: in vitro ADME; conditions: microsomes, read-out: microsome stability (T1/2, min)
property.name: half-life (min)
Number in min, nothing else.

# get_value(readout='half-life', item= "CCN1CCN(Cc2ccc(NC(=O)c3ccc(C)c(Oc4ncnc5cc(NC)c(OC)cc45)c3)cc2C(F)(F)F)CC1" ) 60.2

---

molecular target: LCK (Homo sapiens)
Sequence (P06239 whole entry): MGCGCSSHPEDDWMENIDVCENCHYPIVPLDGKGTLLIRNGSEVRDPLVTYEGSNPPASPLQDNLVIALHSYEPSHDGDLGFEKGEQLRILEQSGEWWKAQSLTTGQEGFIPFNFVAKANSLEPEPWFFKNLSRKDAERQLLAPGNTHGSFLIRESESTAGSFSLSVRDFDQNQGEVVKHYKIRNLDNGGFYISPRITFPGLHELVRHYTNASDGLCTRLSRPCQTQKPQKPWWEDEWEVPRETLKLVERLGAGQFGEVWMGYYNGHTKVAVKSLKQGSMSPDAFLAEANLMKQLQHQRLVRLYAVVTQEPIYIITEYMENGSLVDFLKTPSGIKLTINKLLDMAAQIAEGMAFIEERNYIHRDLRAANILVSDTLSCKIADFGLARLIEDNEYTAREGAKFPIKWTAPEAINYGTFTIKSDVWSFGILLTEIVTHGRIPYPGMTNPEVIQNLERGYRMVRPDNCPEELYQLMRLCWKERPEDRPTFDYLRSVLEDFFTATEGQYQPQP
property.name: IC50 (nM)
Number in nM, nothing else.

# get_value(readout='IC50', item= "CCN1CCN(Cc2ccc(NC(=O)c3ccc(C)c(Oc4ncnc5cc(NC)c(OC)cc45)c3)cc2C(F)(F)F)CC1" ) 4.73

---

test: microsome stability (mouse); assay type: in vitro ADME; conditions: microsomes, read-out: microsome stability (T1/2, min)
property.name: half-life (min)
Number in min, nothing else.

Solved entries:
COc1cc2c(Oc3cc(C(=O)Nc4cccc(C(F)(F)F)c4)ccc3C)ncnc2cc1NCCN1CCN(C)CC1 [Compound (I-4)] ... 5.7
CCN1CCN(Cc2ccc(NC(=O)c3ccc(C)c(Oc4ncnc5cc6[nH]cnc6cc45)c3)cc2C(F)(F)F)CC1 [Compound (I-16)] ... 8.6
CCN1CCN(Cc2ccc(NC(=O)c3ccc(C)c(Oc4ncnc5cc(NC)c(OC)cc45)c3)cc2C(F)(F)F)CC1 [Compound (I-1)] ... 42.4
CCN1CCN(Cc2ccc(NC(=O)c3ccc(C)c(Oc4ncnc5cc(N)c(OC)cc45)c3)cc2C(F)(F)F)CC1 [Compound (I-2)] ... 41.7

# get_value(readout='half-life', item= CCN1CCN(Cc2ccc(NC(=O)c3ccc(C)c(Oc4ncnc5cc(NC)ccc45)c3)cc2C(F)(F)F)CC1 [Compound (I-14)] ) 20.4

---

biological target: ABL1 (Homo sapiens)
Sequence (P00519 whole entry): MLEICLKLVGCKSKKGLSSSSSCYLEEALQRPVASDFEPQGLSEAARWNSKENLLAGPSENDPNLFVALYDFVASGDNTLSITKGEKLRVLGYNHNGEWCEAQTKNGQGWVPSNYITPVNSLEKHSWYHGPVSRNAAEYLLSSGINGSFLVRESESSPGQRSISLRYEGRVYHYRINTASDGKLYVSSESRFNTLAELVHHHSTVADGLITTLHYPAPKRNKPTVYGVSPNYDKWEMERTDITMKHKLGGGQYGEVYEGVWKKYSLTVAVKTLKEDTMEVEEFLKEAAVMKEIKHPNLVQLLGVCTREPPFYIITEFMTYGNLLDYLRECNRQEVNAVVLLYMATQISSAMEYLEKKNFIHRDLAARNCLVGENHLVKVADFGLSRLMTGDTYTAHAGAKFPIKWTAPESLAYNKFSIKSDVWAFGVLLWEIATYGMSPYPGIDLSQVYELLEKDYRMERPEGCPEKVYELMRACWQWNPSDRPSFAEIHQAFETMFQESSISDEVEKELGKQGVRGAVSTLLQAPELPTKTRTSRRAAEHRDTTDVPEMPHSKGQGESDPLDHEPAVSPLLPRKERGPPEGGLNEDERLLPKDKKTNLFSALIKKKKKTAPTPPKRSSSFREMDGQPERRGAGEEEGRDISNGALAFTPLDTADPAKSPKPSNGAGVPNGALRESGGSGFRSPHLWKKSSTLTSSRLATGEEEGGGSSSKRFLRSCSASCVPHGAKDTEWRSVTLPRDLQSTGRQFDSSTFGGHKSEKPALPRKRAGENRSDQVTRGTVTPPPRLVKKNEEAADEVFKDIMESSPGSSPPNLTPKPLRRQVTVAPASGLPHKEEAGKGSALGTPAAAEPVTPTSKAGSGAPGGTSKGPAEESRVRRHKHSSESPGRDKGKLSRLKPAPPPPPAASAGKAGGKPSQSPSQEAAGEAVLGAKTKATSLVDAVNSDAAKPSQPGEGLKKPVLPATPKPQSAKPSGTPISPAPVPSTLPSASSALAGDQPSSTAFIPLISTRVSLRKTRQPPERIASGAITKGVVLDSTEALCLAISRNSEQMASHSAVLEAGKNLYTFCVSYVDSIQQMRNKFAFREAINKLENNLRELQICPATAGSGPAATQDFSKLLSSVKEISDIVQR
property.name: IC50 (nM)
Number in nM, nothing else.

# get_value(readout='IC50', item= CCN1CCN(Cc2ccc(NC(=O)c3ccc(C)c(Oc4ncnc5cc(NC)c(OC)cc45)c3)cc2C(F)(F)F)CC1 [Compound (I-1)] ) 32.3

The origin of these recorded values is patent US20230339865A1.
